Give Ca2+ reduction for every item shown.
# Test system: Rattus norvegicus
# experiment_summary: The compound was tested for oral delivery of calcitonin, activity is measured as reduction in serum calcium levels at 400 mg/kg and dose of calcitotin is 10 ug/kg
# Format: functional
Reply: number alone, nothing else.

The measured Ca2+ reduction associated with CC(C)C[C@H](NC(=O)C1CCCCCC1)C(=O)O reads -19.76

Ca2+ reduction for CC(C)C[C@H](NC(=O)C1CCC(C)CC1)C(=O)O (stereo not given in full) is -15.52

Input CC(C)C[C@H](NC(=O)c1ccc([N+](=O)[O-])cc1)C(=O)O . Output Ca2+ reduction: -11.8

Measured Ca2+ reduction of CC(C)C[C@H](NC(=O)C1CCCCC1)C(=O)O.N=C(N)NCCC[C@H](NC(=O)C1CCCCC1)C(=O)O.O=C(N[C@@H](Cc1ccc(O)cc1)C(=O)O)C1CCCCC1 : -33.9

Ca2+ reduction in this record for CC(C)C[C@H](NC(=O)CCC1CCCCC1)C(=O)O : -14.97
